Molecular target: T1, human plasma Kallikrein (human, UniProt P03952 20-638, limits assumed)
T1 construct: also called hPK; human PK
T1 sequence (P03952 20-638 limits assumed): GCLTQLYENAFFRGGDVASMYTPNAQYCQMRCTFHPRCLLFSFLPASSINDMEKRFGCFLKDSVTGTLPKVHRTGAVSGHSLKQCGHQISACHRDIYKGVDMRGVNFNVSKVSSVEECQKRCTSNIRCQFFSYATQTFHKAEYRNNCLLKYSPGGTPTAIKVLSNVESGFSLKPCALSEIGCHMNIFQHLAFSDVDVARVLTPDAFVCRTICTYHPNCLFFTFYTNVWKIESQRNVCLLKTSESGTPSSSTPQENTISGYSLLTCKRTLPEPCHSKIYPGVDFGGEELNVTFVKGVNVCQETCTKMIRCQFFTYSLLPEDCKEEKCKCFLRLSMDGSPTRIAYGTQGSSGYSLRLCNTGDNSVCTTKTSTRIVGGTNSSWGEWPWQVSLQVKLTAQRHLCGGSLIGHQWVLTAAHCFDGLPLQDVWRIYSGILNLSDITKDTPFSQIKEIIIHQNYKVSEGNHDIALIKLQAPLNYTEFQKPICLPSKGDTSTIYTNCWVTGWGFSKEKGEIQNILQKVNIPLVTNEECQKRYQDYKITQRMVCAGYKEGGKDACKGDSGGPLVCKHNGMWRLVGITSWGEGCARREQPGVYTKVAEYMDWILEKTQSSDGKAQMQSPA
Test: enzyme inhibition assay
pKi: −log10 of the molar value. Numbered stars: 1 amine (or outer) side, 2 acyl side, 3 side chain; on linkers, the order of the positions; unused ones are H or OH. Bridge positions count the residues as written; N and C are the ends. TBMB = c1c(C[*:1])cc(C[*:3])cc1C[*:2]

binder	pKi
Ac-CSWPYRCLHQDLC-NH2 (linker 1-7-13 via TBMB; SMILES CC(=O)N[C@H]1CSCc2cc3cc(c2)CSC[C@H](NC(=O)[C@H](CCCNC(=N)N)NC(=O)[C@H](Cc2ccc(O)cc2)NC(=O)[C@@H]2CCCN2C(=O)[C@H](Cc2c[nH]c4ccccc24)NC(=O)[C@H](CO)NC1=O)C(=O)N[C@@H](CC(C)C)C(=O)N[C@@H](Cc1c[nH]cn1)C(=O)N[C@@H](CCC(N)=O)C(=O)N[C@@H](CC(=O)O)C(=O)N[C@@H](CC(C)C)C(=O)N[C@H](C(N)=O)CSC3) [Ac-(06-34-18) WPYR]	9.39
Ac-CSFPARCLHQDLC-NH2 (linker 1-7-13 via TBMB; SMILES CC(=O)N[C@H]1CSCc2cc3cc(c2)CSC[C@H](NC(=O)[C@H](CCCNC(=N)N)NC(=O)[C@H](C)NC(=O)[C@@H]2CCCN2C(=O)[C@H](Cc2ccccc2)NC(=O)[C@H](CO)NC1=O)C(=O)N[C@@H](CC(C)C)C(=O)N[C@@H](Cc1c[nH]cn1)C(=O)N[C@@H](CCC(N)=O)C(=O)N[C@@H](CC(=O)O)C(=O)N[C@@H](CC(C)C)C(=O)N[C@H](C(N)=O)CSC3) [Ac-(06-34-18) FPAR]	8.20
Ac-CSWPSRCLHQDLC-NH2 (linker 1-7-13 via TBMB; SMILES CC(=O)N[C@H]1CSCc2cc3cc(c2)CSC[C@H](NC(=O)[C@H](CCCNC(=N)N)NC(=O)[C@H](CO)NC(=O)[C@@H]2CCCN2C(=O)[C@H](Cc2c[nH]c4ccccc24)NC(=O)[C@H](CO)NC1=O)C(=O)N[C@@H](CC(C)C)C(=O)N[C@@H](Cc1c[nH]cn1)C(=O)N[C@@H](CCC(N)=O)C(=O)N[C@@H](CC(=O)O)C(=O)N[C@@H](CC(C)C)C(=O)N[C@H](C(N)=O)CSC3) [Ac-(06-34-18) WPSR]	9.36
